src = ChEMBL document CHEMBL2203240

# TESTED SYSTEM: Glucose-6-phosphatase catalytic subunit 1 (Homo sapiens) (UniProt P35575)
# Sequence (P35575 whole entry): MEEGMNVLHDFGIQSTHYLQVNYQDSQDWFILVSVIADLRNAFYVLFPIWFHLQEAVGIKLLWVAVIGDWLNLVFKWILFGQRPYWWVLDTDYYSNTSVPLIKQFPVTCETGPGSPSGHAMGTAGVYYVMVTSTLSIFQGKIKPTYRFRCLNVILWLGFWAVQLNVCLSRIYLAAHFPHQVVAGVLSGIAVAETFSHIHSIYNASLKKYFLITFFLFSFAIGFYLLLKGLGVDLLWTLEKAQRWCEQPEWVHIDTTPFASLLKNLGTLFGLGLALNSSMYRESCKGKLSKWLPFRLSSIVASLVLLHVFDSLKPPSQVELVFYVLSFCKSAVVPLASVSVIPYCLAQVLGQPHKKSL
# TEST SUMMARY: Inhibition of glucose-6-phosphatase at 100 uM
READOUT NAME: inhibition

Would you please look over these solved cases?
>>> assay_result("CCC(=O)c1c(O)cccc1OCCCNc1ccc(OC)cc1")
"< 5%"
>>> assay_result("CCC(=O)c1c(O)cccc1OCCN(CC)CC")
"11.6%"

Problem: Bench note: what inhibition did CCOC(=O)C(CCCOc1cccc(OCCN(C)C)c1C(=O)CC)C(=O)OCC show?
Result: < 5%

---

# TESTED SYSTEM: Tyrosine-protein phosphatase non-receptor type 1 (Homo sapiens)
# TEST SUMMARY: Inhibition of PTP1B at 100 uM
For each record, write down the corresponding inhibition.
Remember to quote the unit after the number.

>>> assay_result("CCC(=O)c1c(O)cccc1OCCN1CCCC1")
"36.4%"
>>> assay_result("CCC(=O)c1c(O)cccc1OCCCN1CCCCC1")
"31.8%"

Problem: Bench note: what inhibition did CCC(=O)c1c(O)cccc1OCCCNc1ccc(OC)cc1 show?
Result: 83.6%
